tested on: Human plasma (intrinsic coagulation cascade); experiment: Activated Partial Thromboplastin Time (aPTT) Assay; conditions: concentration that causes a 50% (1.5×) increase of clot time over vehicle
quantity_measured: aPTT (1.5x) (µM)
Your answer is read as µM, so omit the unit and give the number.

Some compounds with recorded aPTT (1.5x):
C[C@]1(O)CC[C@H](CC(C(=O)Nc2ccc(C(=O)O)cc2)c2ccc(-c3c(C(F)F)ccc(Cl)c3F)c[n+]2[O-])CC1 (single isomer, unassigned) [Example 47]
0.59
COc1cc(C(CC2CC2)C(=O)Nc2ccc(C(=O)O)cc2)[n+]([O-])cc1-c1c(OC(F)F)ccc(Cl)c1F (single isomer, unassigned) [Example 70]
0.82

For the next question, use this compound.
# aPTT (1.5x) lookup, item O=C(O)c1ccc(NC(=O)C(CC2CCC(F)(F)CC2)c2ccc(-c3c(OC(F)F)ccc(Cl)c3F)c[n+]2[O-])cc1 (single isomer, unassigned) [Example 39]
1.30
